System: CAL-78 (Chondrosarcoma)
assay.method.text: combination Emax (second highest fraction inhibited in the dose matrix, 72 h); higher = more inhibition; extreme values may be limits of the assay
endpoint.name: combination Emax
One number for each entry.

A selection of reference data follows.
| molecule | reported.result |
| --- | --- |
| Cc1c2c(nn1C)CSCc1cc(n(C)n1)CSc1cc(c3ccccc3c1)OCCCc1c(C(=O)O)n(C)c3c-2c(Cl)ccc13 [AZD5991] + C[C@@H](Nc1cc(F)cc(F)c1)c1cc(C(=O)N(C)C)cc2c(=O)cc(N3CCOCC3)oc12 [AZD8186] (first compound max 1 µM, 7x7, partner max 3 µM) | 0.875 |
| CC1(C)CCC(CN2CCN(c3ccc(C(=O)NS(=O)(=O)c4ccc(NCC5CCOCC5)c([N+](=O)[O-])c4)c(Oc4cnc5[nH]ccc5c4)c3)CC2)=C(c2ccc(Cl)cc2)C1 [Venetoclax] + CN(C)CCCOc1ccc(-c2ccc3ncc4c(c3c2)n(C2CCOCC2)c(=O)n4C)cn1 [AZD0156] (first compound max 1 µM, 7x7, partner max 1 µM) | 0.248 |

Now for the molecule whose combination Emax we want.
IN: Quick one: give measured combination Emax for COc1cccc(OCCCN)c1-c1cc(Nc2cnc(C#N)cn2)n[nH]1 [Prexasertib] + Cc1cc2ncnn2cc1Nc1ncc2c(n1)n(C1CCOCC1)c(=O)n2C [AZD7648] (first compound max 1 µM, 7x7, partner max 10 µM)
OUT: 0.586

* * *

Tested on: KM-H2 (Hodgkin's Lymphoma)
assay.method.text: Bliss excess, mean over the matrix (fraction); higher = more synergy
Can you tell me Bliss excess for the items I'm about to list?
Numbers only.

A selection of reference data follows.
| molecule | Bliss excess |
| --- | --- |
| C[C@@H](c1ccc2nccn2c1)n1nnc2ncc(-c3cnn(C)c3)nc21 [Savolitinib] + CN(CC[C@H](CSC1=CC=CC=C1)NC2=C(C=C(C=C2)S(=O)(=O)NC(=O)C3=CC=C(C=C3)N4CCC(CC4)[C@H](C5=CC=CC=C5C6=CC=C(C=C6)Cl)O)S(=O)(=O)C(F)(F)F)CCO [AZD4320] (first compound max 1 µM, 7x7, partner max 1 µM) | -0.0267 |
| CN(CCO)CC[C@H](CSc1ccccc1)Nc1ccc(S(=O)(=O)NC(=O)c2ccc(N3CCC([C@@H](O)c4ccccc4-c4ccc(Cl)cc4)CC3)cc2)cc1S(=O)(=O)C(F)(F)F [AZD4320] + Cn1cnc2c(F)c(Nc3ccc(Br)cc3Cl)c(C(=O)NOCCO)cc21 [Selumetinib] (first compound max 1 µM, 7x7, partner max 3 µM) | 0.0106 |

IN: Give Bliss excess for COc1nnc2ccc(N3CCC(c4ccc(OCCN5CCN(C)C(=O)[C@H]5C)cc4)CC3)nn12 [AZD5153] + C=CCn1c(=O)c2cnc(Nc3ccc(N4CCN(C)CC4)cc3)nc2n1-c1cccc(C(C)(C)O)n1 [AZD1775] (first compound max 1 µM, partner max 1 µM) tested on KM-H2 (Hodgkin's Lymphoma).
OUT: -0.101

* * *

Test system: CTV-1 (T-Lymphoblastic Leukemia)
assay.method.text: Bliss excess, mean over the matrix (fraction); higher = more synergy
Our labelling divides records by Bliss excess into ranges: b0: < -0.009; b1: ≥ -0.009 and < 0.006; b2: ≥ 0.006

| compound | qualitative.label |
| --- | --- |
| COc1nnc2ccc(N3CCC(c4ccc(OCCN5CCN(C)C(=O)[C@H]5C)cc4)CC3)nn12 [AZD5153] + CCN(CCO)CCCOc1ccc2c(Nc3cc(CC(=O)Nc4cccc(F)c4)[nH]n3)ncnc2c1 [AZD2811] (first compound max 1 µM, 7x7, partner max 1 µM) | b2 |
| CC1(C)CCC(CN2CCN(c3ccc(C(=O)NS(=O)(=O)c4ccc(NCC5CCOCC5)c([N+](=O)[O-])c4)c(Oc4cnc5[nH]ccc5c4)c3)CC2)=C(c2ccc(Cl)cc2)C1 [Venetoclax] + C[C@@H]1COCCN1C2=NC(=NC(=C2)C3(CC3)[S@](=N)(=O)C)C4=C5C=CNC5=NC=C4 [AZD6738] (first compound max 1 µM, 7x7, partner max 10 µM) | b1 |
| Cc1cc2ncnn2cc1Nc1ncc2c(n1)n(C1CCOCC1)c(=O)n2C [AZD7648] + CCN(CCO)CCCOc1ccc2c(Nc3cc(CC(=O)Nc4cccc(F)c4)[nH]n3)ncnc2c1 [AZD2811] (first compound max 10 µM, 7x7, partner max 1 µM) | b2 |

IN: Tag the class for CN(CCO)CC[C@H](CSc1ccccc1)Nc1ccc(S(=O)(=O)NC(=O)c2ccc(N3CCC([C@@H](O)c4ccccc4-c4ccc(Cl)cc4)CC3)cc2)cc1S(=O)(=O)C(F)(F)F [AZD4320] + C1CN(CCC1(C(=O)N[C@@H](CCO)C2=CC=C(C=C2)Cl)N)C3=NC=NC4=C3C=CN4 [Capivasertib] (first compound max 1 µM, 7x7, partner max 3 µM)
OUT: b0

IN: Tag the class for COc1cccc(OCCCN)c1-c1cc(Nc2cnc(C#N)cn2)n[nH]1 [Prexasertib] + Cc1cc2ncnn2cc1Nc1ncc2c(n1)n(C1CCOCC1)c(=O)n2C [AZD7648] (first compound max 1 µM, 7x7, partner max 10 µM)
OUT: b0

IN: Tag the class for CN(CCO)CC[C@H](CSc1ccccc1)Nc1ccc(S(=O)(=O)NC(=O)c2ccc(N3CCC([C@@H](O)c4ccccc4-c4ccc(Cl)cc4)CC3)cc2)cc1S(=O)(=O)C(F)(F)F [AZD4320] + Cc1cc2ncnn2cc1Nc1ncc2c(n1)n(C1CCOCC1)c(=O)n2C [AZD7648] (first compound max 1 µM, 7x7, partner max 10 µM)
OUT: b1

IN: Tag the class for Cc1cc2ncnn2cc1Nc1ncc2c(n1)n(C1CCOCC1)c(=O)n2C [AZD7648] + C[C@@H]1COCCN1C2=NC(=NC(=C2)C3(CC3)[S@](=N)(=O)C)C4=C5C=CNC5=NC=C4 [AZD6738] (first compound max 10 µM, 7x7, partner max 10 µM)
OUT: b1

* * *

System: J82 (Bladder Carcinoma)
assay.method.text: Bliss excess, mean over the matrix (fraction); higher = more synergy
endpoint.name: Bliss excess
One number for each entry.

| compound | reported.result |
| --- | --- |
| C[C@@H](c1ccc2nccn2c1)n1nnc2ncc(-c3cnn(C)c3)nc21 [Savolitinib] + CC1(C)CCC(CN2CCN(c3ccc(C(=O)NS(=O)(=O)c4ccc(NCC5CCOCC5)c([N+](=O)[O-])c4)c(Oc4cnc5[nH]ccc5c4)c3)CC2)=C(c2ccc(Cl)cc2)C1 [Venetoclax] (first compound max 1 µM, 7x7, partner max 1 µM) | -0.0895 |

Now for the compound whose Bliss excess we want.
IN: Quick one: give measured Bliss excess for Cn1cnc2c(F)c(Nc3ccc(Br)cc3Cl)c(C(=O)NOCCO)cc21 [Selumetinib] + CC(C)n1c(=O)n(C)c2cnc3cc(F)c(-c4ccc(OCCCN5CCCCC5)nc4)cc3c21 [AZD1390] (first compound max 10 µM, 7x7, partner max 0.3 µM)
OUT: 0.0142

* * *

Can you tell me combination Emax for the items I'm about to list?
Test system: TE-5 (Esophageal Squamous Cell Carcinoma)
assay.method.text: combination Emax (second highest fraction inhibited in the dose matrix, 72 h); higher = more inhibition; extreme values may be limits of the assay
Give bare numbers.

A selection of reference data follows.
| compound | reported.result |
| --- | --- |
| C[C@@H]1COCCN1c1cc(C2([S@](C)(=N)=O)CC2)nc(-c2ccnc3[nH]ccc23)n1 [AZD6738] + O=C(c1cc(Cc2n[nH]c(=O)c3ccccc23)ccc1F)N1CCN(C(=O)C2CC2)CC1 [Olaparib] (first compound max 10 µM, 7x7, partner max 10 µM) | 0.442 |
| CC(=O)c1c(C)c2cnc(Nc3ccc(N4CCNCC4)cn3)nc2n(C2CCCC2)c1=O [Palbociclib] + Cn1cnc2c(F)c(Nc3ccc(Br)cc3Cl)c(C(=O)NOCCO)cc21 [Selumetinib] (first compound max 10 µM, 7x7, partner max 10 µM) | 0.213 |
| CC1(C)CCC(CN2CCN(c3ccc(C(=O)NS(=O)(=O)c4ccc(NCC5CCOCC5)c([N+](=O)[O-])c4)c(Oc4cnc5[nH]ccc5c4)c3)CC2)=C(c2ccc(Cl)cc2)C1 [Venetoclax] + CCN(CCO)CCCOc1ccc2c(Nc3cc(CC(=O)Nc4cccc(F)c4)[nH]n3)ncnc2c1 [AZD2811] (first compound max 1 µM, 7x7, partner max 1 µM) | 0.29 |
| C[C@@H](Oc1cc(-c2cnn(C3CCNCC3)c2)cnc1N)c1c(Cl)ccc(F)c1Cl [Crizotinib] + Cn1cnc2c(F)c(Nc3ccc(Br)cc3Cl)c(C(=O)NOCCO)cc21 [Selumetinib] (first compound max 10 µM, 7x7, partner max 10 µM) | 0.186 |
| C[C@@H](c1ccc2nccn2c1)n1nnc2ncc(-c3cnn(C)c3)nc21 [Savolitinib] + Cc1c2c(nn1C)CSCc1cc(n(C)n1)CSc1cc(c3ccccc3c1)OCCCc1c(C(=O)O)n(C)c3c-2c(Cl)ccc13 [AZD5991] (first compound max 1 µM, 7x7, partner max 1 µM) | 0.147 |
| Cc1c2c(nn1C)CSCc1cc(n(C)n1)CSc1cc(c3ccccc3c1)OCCCc1c(C(=O)O)n(C)c3c-2c(Cl)ccc13 [AZD5991] + CC1(C)CCC(CN2CCN(c3ccc(C(=O)NS(=O)(=O)c4ccc(NCC5CCOCC5)c([N+](=O)[O-])c4)c(Oc4cnc5[nH]ccc5c4)c3)CC2)=C(c2ccc(Cl)cc2)C1 [Venetoclax] (first compound max 1 µM, 7x7, partner max 1 µM) | 0.525 |

Now for the compound whose combination Emax we want.
IN: Give combination Emax for CC1(C)CCC(CN2CCN(c3ccc(C(=O)NS(=O)(=O)c4ccc(NCC5CCOCC5)c([N+](=O)[O-])c4)c(Oc4cnc5[nH]ccc5c4)c3)CC2)=C(c2ccc(Cl)cc2)C1 [Venetoclax] + COc1cc(Nc2ncc3c(n2)-c2ccc(Cl)cc2C(c2c(F)cccc2OC)=NC3)ccc1C(=O)O [Alisertib] (first compound max 1 µM, 7x7, partner max 10 µM) tested on TE-5 (Esophageal Squamous Cell Carcinoma).
OUT: 0.137
